- test_protocol: Pharmacokinetic test in rats
- Type: in vivo
- measurement_parameters: male, SD, rat, po, plasma, i.g. (10 mg/kg), Vehicle 1
endpoint_name: AUC(0-t)

The reported value for CN1CCN([C@@H]2CCCN(c3cnc(C(N)=O)c(Nc4ccc(N5CCC(CN6CCN7c8cc(F)c(C9CCC(=O)NC9=O)cc8CC[C@H]7C6)CC5)cc4)n3)C2)C1=O (stereo partly shown) in terms of AUC(0-t) is > 1000 ng·h/mL

---

- test_target: BTK L528W (Homo sapiens, UniProt Q06187, L528W)
- Sequence (Q06187 whole entry L528W): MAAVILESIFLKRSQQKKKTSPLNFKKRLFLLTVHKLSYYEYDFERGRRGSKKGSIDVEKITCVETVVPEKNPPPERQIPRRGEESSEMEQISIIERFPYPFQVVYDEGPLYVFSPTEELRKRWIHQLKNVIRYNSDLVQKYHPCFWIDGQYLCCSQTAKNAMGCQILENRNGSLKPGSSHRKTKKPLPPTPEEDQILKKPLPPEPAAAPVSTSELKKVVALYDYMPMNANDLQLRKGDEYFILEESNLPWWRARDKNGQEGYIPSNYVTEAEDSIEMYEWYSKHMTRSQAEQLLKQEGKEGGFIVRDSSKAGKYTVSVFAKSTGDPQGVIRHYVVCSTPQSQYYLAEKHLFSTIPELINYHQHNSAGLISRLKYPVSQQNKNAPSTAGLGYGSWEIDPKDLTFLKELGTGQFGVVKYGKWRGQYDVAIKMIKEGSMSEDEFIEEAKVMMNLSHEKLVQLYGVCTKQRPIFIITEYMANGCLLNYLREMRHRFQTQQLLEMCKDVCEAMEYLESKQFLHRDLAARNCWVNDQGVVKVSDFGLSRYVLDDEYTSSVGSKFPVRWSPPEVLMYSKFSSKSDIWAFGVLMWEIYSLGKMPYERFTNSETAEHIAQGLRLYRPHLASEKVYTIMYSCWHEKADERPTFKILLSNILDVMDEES
Listing: BTK degradation rate % of selected compounds

Measured BTK degradation rate % (BTK L528W (Homo sapiens, UniProt Q06187, L528W)), entry `[2H]C([2H])([2H])N1CCN([C@@H]2CCCN(c3nnc(C(N)=O)c(Nc4ccc(N5CCC(CN6CCN7c8cc(F)c(C(=O)N[C@H]9CCC(=O)NC9=O)cc8CC[C@@H]7C6)CC5)cc4)n3)C2)C1=O` : >90%

Item `[2H]C([2H])([2H])N1CCN([C@@H]2CCCN(c3cnc(C(N)=O)c(Nc4ccc(N5CCC(CN6CCN7c8cc(F)c(C(=O)N[C@H]9CCC(=O)NC9=O)cc8CC[C@@H]7C6)CC5)cc4)n3)C2)C1=O` was tested on BTK L528W (Homo sapiens, UniProt Q06187, L528W); the reported BTK degradation rate % is >90%

---

- test_protocol: Pharmacokinetic test in rats
- Assay type: in vivo
- measurement_parameters: male, SD, rat, plasma, po, i.g. (10 mg/kg), Vehicle 1
endpoint_name: bioavailability

bioavailability in this record for CN1CCN([C@@H]2CCCN(c3cnc(C(N)=O)c(Nc4ccc(N5CCC(CN6CCN7c8cc(F)c(C9CCC(=O)NC9=O)cc8CC[C@H]7C6)CC5)cc4)n3)C2)C1=O (stereo partly shown) : > 50%

---

- test_target: BTK L528W (Homo sapiens, UniProt Q06187, L528W)
- measurement_parameters: 5 nM concentration, REC-1 BTK L528W cells, 6 hours
endpoint_name: BTK degradation rate %

>>> observed_value("COCCN1CCN([C@@H]2CCCN(c3nnc(C(N)=O)c(Nc4ccc(N5CCC(CN6CCN7c8cc(F)c(C9CCC(=O)NC9=O)cc8CC[C@H]7C6)CC5)cc4)n3)C2)C1=O (stereo partly shown) [Compound 82]")
">85%"
>>> observed_value("CN1CCN([C@@H]2CCCN(c3nnc(C(N)=O)c(Nc4ccc(N5CCC(CN6CCN7c8cc(F)c(C9CCC(=O)NC9=O)cc8CC[C@@H]7C6)CC5)c(F)c4)n3)C2)C1=O (stereo partly shown) [Compound 77]")
">90%"
>>> observed_value("CN1CCN([C@@H]2CCCN(c3cnc(C(N)=O)c(Nc4ccc(N5CCC(CN6CCN7c8cc(F)c(C9CCC(=O)NC9=O)cc8CC[C@@H]7C6)CC5)cc4)n3)C2)C1=O (stereo partly shown) [Compound 12]")
">90%"

Sure, the documented BTK degradation rate % for COCCN1CCN([C@@H]2CCCN(c3cnc(C(N)=O)c(Nc4ccc(N5CCC(CN6CCN7c8cc(F)c(C9CCC(=O)NC9=O)cc8CC[C@H]7C6)CC5)cc4)n3)C2)C1=O (stereo partly shown) [Compound 84] is >70%

Entry under test: NC(=O)c1nnc(N2CCC[C@@H](N3CCN(CC4CC4)C3=O)C2)nc1Nc1ccc(N2CCC(CN3CCN4c5cc(F)c(C6CCC(=O)NC6=O)cc5CC[C@H]4C3)CC2)cc1 (stereo partly shown) [Trifluoroacetate of compound 93] . Its BTK degradation rate % was >70%

Field BTK degradation rate % (entry COCCN1CCN([C@@H]2CCCN(c3nnc(C(N)=O)c(Nc4ccc(N5CCC(CN6CCN7c8cc(F)c(C9CCC(=O)NC9=O)cc8CC[C@H]7C6)CC5)c(F)c4)n3)C2)C1=O (stereo partly shown) [Compound 83] ) reads >85%

Documented BTK degradation rate % of NC(=O)c1nnc(N2CCC[C@@H](N3CCN(C4CC4)C3=O)C2)nc1Nc1ccc(N2CCC(CN3CCN4c5cc(F)c(C6CCC(=O)NC6=O)cc5CC[C@H]4C3)CC2)cc1 (stereo partly shown) [Compound 89] : >80%

---

- test_protocol: Pharmacokinetic test in rats
- Format: in vivo
- measurement_parameters: male, SD, rat, po, plasma, i.g. (10 mg/kg), Vehicle 2
endpoint_name: AUC(0-t)

Consider the following illustrative entries.
>>> observed_value("CN1CCN([C@@H]2CCCN(c3nnc(C(N)=O)c(Nc4ccc(N5CCC(CN6CCN7c8cc(F)c(C9CCC(=O)NC9=O)cc8CC[C@@H]7C6)CC5)c(F)c4)n3)C2)C1=O (stereo partly drawn)")
"> 1000 ng·h/mL"
>>> observed_value("CN1CCN([C@@H]2CCCN(c3cnc(C(N)=O)c(Nc4ccc(N5CCC6(CC5)CC(CN5CCN7c8cc(F)c(C9CCC(=O)NC9=O)cc8CC[C@H]7C5)C6)cc4)n3)C2)C1=O (stereo partly drawn)")
"> 1000 ng·h/mL"

Please examine the following record next.
Lab note: measured AUC(0-t) of `CN1CCN([C@@H]2CCCN(c3cnc(C(N)=O)c(Nc4ccc(N5CCC(CN6CCN7c8cc(F)c(N9CCC(=O)NC9=O)cc8CC[C@@H]7C6)CC5)cc4)n3)C2)C1=O` was > 1000 ng·h/mL

---

- test_protocol: Caco2 permeability test
- Assay type: in vitro ADME
- measurement_parameters: human, Caco-2 monolayer, pH 7.4
Papp A→B at 2 h, 2 µM: recorded values
# number only, unit ×10⁻⁶ cm/s dropped from output

Guide cases for Papp A→B at 2 h, 2 µM, answers given:
>>> observed_value("CN1CCN([C@@H]2CCCN(c3cnc(C(N)=O)c(Nc4ccc(C5CCN(CC6CCN(c7ccc(C(=O)N[C@H]8CCC(=O)NC8=O)nc7)CC6)CC5)cc4)n3)C2)C1=O [Control compound 1, reference compound]")
0.101
>>> observed_value("CN1CCN([C@@H]2CCCN(c3cnc(C(N)=O)c(Nc4ccc(N5CCC(CN6CCN7c8cc(F)c(C9CCC(=O)NC9=O)cc8CC[C@H]7C6)CC5)cc4)n3)C2)C1=O (stereo partly drawn) [Compound 11]")
1.75

Could you now consider this next molecule?
Looking up CN1CCN([C@@H]2CCCN(c3nnc(C(N)=O)c(Nc4ccc(N5CCC(CN6CCN7c8cc(F)c(C9CCC(=O)NC9=O)cc8CC[C@@H]7C6)CC5)c(F)c4)n3)C2)C1=O (stereo partly drawn) [Compound 77] , I see its Papp A→B at 2 h, 2 µM listed as 0.984

---

- test_protocol: Caco2 permeability test
- Assay type: in vitro ADME
- measurement_parameters: human, Caco-2 monolayer, pH 7.4
endpoint_name: efflux ratio at 2 h, 2 µM
Enter a number only.

>>> observed_value("CN1CCN([C@@H]2CCCN(c3cnc(C(N)=O)c(Nc4ccc(N5CCC(CN6CCN7c8cc(F)c(N9CCC(=O)NC9=O)cc8CC[C@@H]7C6)CC5)cc4)n3)C2)C1=O [Compound 22]")
1.87

// efflux ratio at 2 h, 2 µM lookup, compound = CN1CCN([C@@H]2CCCN(c3cnc(C(N)=O)c(Nc4ccc(N5CCC(CN6CCN7c8cc(F)c(C9CCC(=O)NC9=O)cc8CC[C@@H]7C6)CC5)cc4)n3)C2)C1=O (stereo partly drawn) [Compound 12] , result: 3.99

Value of measured efflux ratio at 2 h, 2 µM for the entry CN1CCN([C@@H]2CCCN(c3cnc(C(N)=O)c(Nc4ccc(N5CCC6(CC5)CC(CN5CCN7c8cc(F)c(C9CCC(=O)NC9=O)cc8CC[C@H]7C5)C6)cc4)n3)C2)C1=O (stereo partly drawn) [Compound 14] : 2.47

---

- test_target: BTK L528W (Homo sapiens, UniProt Q06187, L528W)
Property: BTK degradation rate %; scope: individual molecules

Sample records with BTK degradation rate %:
>>> observed_value("CN1CCN([C@@H]2CCCN(c3cnc(C(N)=O)c(Nc4ccc(N5CCC6(CC5)CC(N5CCN7c8cc(F)c(C(=O)N[C@H]9CCC(=O)NC9=O)cc8CC[C@H]7C5)C6)cc4)n3)C2)C1=O [Compound 34]")
">90%"
>>> observed_value("CN1CCN([C@@H]2CCCN(c3nnc(C(N)=O)c(Nc4ccc(N5CCC(CN6CCN7c8cc(F)c(C(=O)N[C@H]9CCC(=O)NC9=O)cc8CC[C@@H]7C6)CC5)cc4)n3)C2)C1=O [Compound 47]")
">90%"
>>> observed_value("[2H]C([2H])([2H])N1CCN([C@@H]2CCCN(c3cnc(C(N)=O)c(Nc4ccc(N5CCC(CN6CCN7c8cc(F)c(N9CCC(=O)NC9=O)cc8CC[C@@H]7C6)CC5)cc4)n3)C2)C1=O [Compound 66]")
">80%"

Okay, now this molecule:
get_value(item= [2H]C([2H])([2H])N1CCN([C@@H]2CCCN(c3cnc(C(N)=O)c(Nc4ccc(N5CCC(CN6CCN7c8cc(F)c(C(=O)N[C@H]9CCC(=O)NC9=O)cc8CC[C@H]7C6)CC5)cc4)n3)C2)C1=O [Compound 67] , readout=BTK degradation rate %) returns >90%
